molecular target: MEK2 (Homo sapiens, UniProt P36507); assay: Raf-MEK-ERK cascade kinase assay using recombinant protein (MEK2); details: 10 μM ATP, active B-Raf (V599E), 30° C. 30 minutes
Sequence (P36507 whole entry): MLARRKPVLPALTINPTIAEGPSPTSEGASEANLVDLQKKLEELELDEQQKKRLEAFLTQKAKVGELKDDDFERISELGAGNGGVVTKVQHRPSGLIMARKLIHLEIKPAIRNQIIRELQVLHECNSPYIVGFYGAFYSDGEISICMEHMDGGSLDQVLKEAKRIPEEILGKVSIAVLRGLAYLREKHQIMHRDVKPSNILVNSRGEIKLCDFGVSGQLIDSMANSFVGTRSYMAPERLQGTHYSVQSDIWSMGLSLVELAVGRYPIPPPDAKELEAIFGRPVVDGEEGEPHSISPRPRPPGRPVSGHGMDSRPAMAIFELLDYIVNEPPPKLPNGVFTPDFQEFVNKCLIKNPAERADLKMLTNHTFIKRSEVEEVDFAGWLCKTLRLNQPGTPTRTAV

>  <chemical.smiles>
Cc1c(=O)n(C)c(Nc2ccc(I)cc2F)c2c(=O)n(C3CC3)c(=O)n(-c3cccc(NC(=S)CO)c3)c12

>  <scale.unit>
nM

>  <IC50>
2.08

$$$$
>  <chemical.smiles>
Cc1c(=O)n(C)c(Nc2ccc(I)cc2F)c2c(=O)n(C3CC3)c(=O)n(-c3cccc(NC(=S)C(=O)O)c3)c12

>  <scale.unit>
nM

>  <IC50>
2.64

$$$$
>  <chemical.smiles>
CC(=S)Nc1cc(F)cc(-n2c(=O)n(C3CC3)c(=O)c3c(Nc4ccc(I)cc4F)n(C)c(=O)c(C)c32)c1

>  <scale.unit>
nM

>  <IC50>
2.07

$$$$
>  <chemical.smiles>
CC(=S)Nc1cccc(-n2c(=O)n(C3CCCC3)c(=O)c3c(Nc4ccc(I)cc4F)n(C)c(=O)c(C)c32)c1

>  <scale.unit>
nM

>  <IC50>
1.05

$$$$
